Tested on: Parabacteroides merdae
Assay: Antibacterial activity against Parabacteroides merdae by CLSI M11-A6 agar dilution method
Format: functional
MEASURED QUANTITY: MIC90 (µg/mL)
Numbers only here, please. The scale is µg/mL.

RECORD SMILES	ASSAY RESULT
CN[C@H](CC(C)C)C(=O)N[C@H]1C(=O)N[C@@H](CC(N)=O)C(=O)N[C@H]2C(=O)N[C@H]3C(=O)N[C@H](C(=O)N[C@H](C(=O)O)c4cc(O)cc(O)c4-c4cc3ccc4O)[C@H](O)c3ccc(c(Cl)c3)Oc3cc2cc(c3O[C@@H]2O[C@H](CO)[C@@H](O)[C@H](O)[C@H]2O[C@H]2C[C@](C)(N)[C@H](O)[C@H](C)O2)Oc2ccc(cc2Cl)[C@H]1O	128
CC(=O)NC[C@H]1CN(c2ccc(N3CCOCC3)c(F)c2)C(=O)O1	4

Ask: For the compound Cc1ncc([N+](=O)[O-])n1CCO , give its measured MIC90 value.
Result: 2

Ask: For the compound CCC[C@@H]1C[C@@H](C(=O)N[C@@H]([C@H]2O[C@H](SC)[C@H](O)[C@@H](O)[C@H]2O)[C@H](C)Cl)N(C)C1 , give its measured MIC90 value.
Result: 64

----------
Test system: [Clostridium] innocuum
Test: Antibacterial activity against Clostridium innocuum by CLSI M11-A6 agar dilution method
Assay type: functional
Kindly apply the following: Condition met if MIC50 is less than 2 µg/mL, Condition not met in every other case.

Worked cases, answers included:
RECORD SMILES	GROUP
CCCCCCCCCC(=O)N[C@@H](Cc1c[nH]c2ccccc12)C(=O)N[C@H](CC(N)=O)C(=O)N[C@@H](CC(=O)O)C(=O)N[C@@H]1C(=O)NCC(=O)N[C@@H](CCCN)C(=O)N[C@@H](CC(=O)O)C(=O)N[C@H](C)C(=O)N[C@@H](CC(=O)O)C(=O)NCC(=O)N[C@H](CO)C(=O)N[C@@H]([C@H](C)CC(=O)O)C(=O)N[C@@H](CC(=O)c2ccccc2N)C(=O)O[C@@H]1C	Condition not met
Cc1ncc([N+](=O)[O-])n1CCO	Condition met
CCC[C@@H]1C[C@@H](C(=O)N[C@@H]([C@H]2O[C@H](SC)[C@H](O)[C@@H](O)[C@H]2O)[C@H](C)Cl)N(C)C1	Condition met

Moving on to another molecule below.
Ask: Bench note: check whether CN[C@H](CC(C)C)C(=O)N[C@H]1C(=O)N[C@@H](CC(N)=O)C(=O)N[C@H]2C(=O)N[C@H]3C(=O)N[C@H](C(=O)N[C@H](C(=O)O)c4cc(O)cc(O)c4-c4cc3ccc4O)[C@H](O)c3ccc(c(Cl)c3)Oc3cc2cc(c3O[C@@H]2O[C@H](CO)[C@@H](O)[C@H](O)[C@H]2O[C@H]2C[C@](C)(N)[C@H](O)[C@H](C)O2)Oc2ccc(cc2Cl)[C@H]1O shows MIC50 below 2 µg/mL
Result: Condition not met

----------
Tested on: Anaerococcus tetradius
Assay: Antibacterial activity against Anaerococcus tetradius by CLSI M11-A6 agar dilution method
Assay type: functional
MEASURED QUANTITY: MIC90 (µg/mL)
Numbers only here, please. The scale is µg/mL.

Ask: For the molecule CC(=O)NC[C@H]1CN(c2ccc(N3CCOCC3)c(F)c2)C(=O)O1 [LINEZOLID] , give its measured MIC90 value.
Result: 2
